- ASSAY_OVERVIEW: Plasma protein binding in human
- Assay type: ADME, cell-free
- STATED_CONDITIONS: read-out: PPB (converted)

{"SMILES_STRING": "C[C@@H](OC(=O)N1CCC(O[C@H]2CC[C@H](Oc3cnc(S(C)(=O)=O)cn3)CC2)CC1)C(F)(F)F", "fraction unbound": 0.025}

---

- ASSAY_OVERVIEW: Clearance in Sprague-Dawley rat at 2 mg/kg, iv and po
- Type: ADME, organism-based
- STATED_CONDITIONS: in vivo

{"SMILES_STRING": "C[C@@H](OC(=O)N1CCC(O[C@H]2CC[C@H](Oc3cnc(S(C)(=O)=O)cn3)CC2)CC1)C(F)(F)F", "clearance": "6.67 mL/min/kg"}

---

- ASSAY_OVERVIEW: Plasma protein binding in rat
- Type: ADME, cell-free
- STATED_CONDITIONS: read-out: PPB (converted)
RESULT_TYPE: fraction unbound

{"SMILES_STRING": "C[C@@H](OC(=O)N1CCC(O[C@H]2CC[C@H](Oc3cnc(S(C)(=O)=O)cn3)CC2)CC1)C(F)(F)F", "RESULT_TYPE": "fraction unbound", "RESULT_VALUE": 0.04}

---

- ASSAY_OVERVIEW: Half life in rat liver microsomes
- Format: ADME
This section presents compounds with their documented half-life values.

{"SMILES_STRING": "CS(=O)(=O)c1cnc(O[C@H]2CC[C@H](OC3CCN(CC4(C(F)(F)F)CC4)CC3)CC2)cn1", "half-life": "> 1 h"}
{"SMILES_STRING": "CS(=O)(=O)c1cnc(O[C@H]2CC[C@H](OC3CCN(C(=O)OC(C(F)(F)F)C(F)(F)F)CC3)CC2)cn1", "half-life": "> 1 h"}
{"SMILES_STRING": "C[C@@H](OC(=O)N1CCC(O[C@H]2CC[C@H](Oc3cnc(S(C)(=O)=O)cn3)CC2)CC1)C(F)(F)F", "half-life": "> 1 h"}

---

Measured EC50 values are reported for all entries that follow.
- TESTED_TARGET: Glucose-dependent insulinotropic receptor (Homo sapiens)
- Sequence (Q8TDV5 whole entry): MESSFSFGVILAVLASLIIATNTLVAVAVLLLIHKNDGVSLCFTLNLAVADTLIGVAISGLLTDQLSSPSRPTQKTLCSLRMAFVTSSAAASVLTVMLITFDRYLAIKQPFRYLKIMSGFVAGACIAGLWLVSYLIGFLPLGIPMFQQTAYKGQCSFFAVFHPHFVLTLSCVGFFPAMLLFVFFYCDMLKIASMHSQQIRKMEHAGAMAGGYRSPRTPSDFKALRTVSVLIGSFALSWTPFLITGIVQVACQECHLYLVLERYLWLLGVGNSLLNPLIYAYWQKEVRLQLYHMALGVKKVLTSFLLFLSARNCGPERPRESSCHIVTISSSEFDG
- ASSAY_OVERVIEW: Agonist activity at human GPR119 by serum shift assay
RESULT_TYPE: EC50 (nM)

{"SMILES_STRING": "CC(C)(C)OC(=O)N1CCC(O[C@H]2CC[C@H](Oc3cnc(S(C)(=O)=O)cn3)CC2)CC1", "RESULT_VALUE": 94}
{"SMILES_STRING": "CS(=O)(=O)c1cnc(O[C@H]2CC[C@H](OC3CCN(C(=O)OC(C(F)(F)F)C(F)(F)F)CC3)CC2)cn1", "RESULT_VALUE": 45.2}
{"SMILES_STRING": "C[C@H](OC(=O)N1CCC(O[C@H]2CC[C@H](Oc3cnc(S(C)(=O)=O)cn3)CC2)CC1)C(F)(F)F", "RESULT_VALUE": 53}
{"SMILES_STRING": "CC(C)OC(=O)N1CCC(O[C@H]2CC[C@H](Oc3cnc(S(C)(=O)=O)cn3)CC2)CC1", "RESULT_VALUE": 92.7}
{"SMILES_STRING": "C[C@@H](OC(=O)N1CCC(O[C@H]2CC[C@H](Oc3cnc(S(C)(=O)=O)cn3)CC2)CC1)C(F)(F)F", "RESULT_VALUE": 38}
{"SMILES_STRING": "CC(C)(C)OC(=O)N1CCC(O[C@H]2CC[C@H](Oc3ccc(S(C)(=O)=O)cc3F)CC2)CC1", "RESULT_VALUE": 227}
{"SMILES_STRING": "CCC(F)(F)C(=O)N1CCC(O[C@H]2CC[C@H](Oc3cnc(S(C)(=O)=O)cn3)CC2)CC1", "RESULT_VALUE": 28.7}
{"SMILES_STRING": "CC(C)(C)OC(=O)N1CCC(O[C@H]2CC[C@H](Oc3ccc(C#N)cc3)CC2)CC1", "RESULT_VALUE": 334}
{"SMILES_STRING": "CC(C)(C)OC(=O)N1CCC(O[C@H]2CC[C@H](Oc3cnc(C#N)cn3)CC2)CC1", "RESULT_VALUE": 144}
